- STUDY_TARGET: Casein kinase II subunit alpha' (Homo sapiens) (UniProt P19784)
- Sequence (P19784 whole entry, looked up): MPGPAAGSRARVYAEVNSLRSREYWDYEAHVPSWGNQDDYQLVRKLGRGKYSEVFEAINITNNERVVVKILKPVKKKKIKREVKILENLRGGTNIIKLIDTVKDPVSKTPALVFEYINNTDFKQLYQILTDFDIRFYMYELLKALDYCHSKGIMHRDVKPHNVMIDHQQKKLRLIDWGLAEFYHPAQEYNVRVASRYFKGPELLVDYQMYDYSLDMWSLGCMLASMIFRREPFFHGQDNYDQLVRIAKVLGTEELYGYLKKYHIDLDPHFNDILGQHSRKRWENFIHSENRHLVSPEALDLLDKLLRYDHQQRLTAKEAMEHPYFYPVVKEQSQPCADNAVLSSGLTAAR
- EXPERIMENT_NOTES: Inhibition of human Casein kinase 2 alpha prime polypeptide assessed as residual activity at 10 uM relative to control
MEASURED_QUANTITY: Activity (%)

CCCCCCCCC[C@@H](O)[C@@H](N)Cc1ccccc1	100
CCCCCCCCCCCCCCC[C@@H](O)[C@H](C)N	98
CCCCCCCCCCCCCCC[C@@H](O)[C@@H](N)[C@@H](C)O	100
CCCCCCCCCCCCCCC[C@@H](O)[C@@H](N)CC(C)C	100

====

- Tested on: WiDr
- EXPERIMENT_NOTES: Antiproliferative activity against human WiDr cells after 48 hrs incubation by SRB assay
- Type: functional
MEASURED_QUANTITY: GI50 (µM)
Give the value, in units of µM, as a plain number.

Examples with answers:
CCCCCCCCCCCCCCC[C@@H](O)[C@@H](N)CC(C)C	4.9
CCCCCCCCC[C@@H](O)[C@@H](N)[C@@H](C)O	14
CCCCCCCCC[C@@H](O)[C@H](C)N	17

Input: May I ask what GI50 has been recorded for CCCCCCCCC[C@@H](O)[C@@H](N)C(C)C ?
Output: 11

Input: Reported GI50 for CCCCCCCCC[C@@H](O)[C@@H](N)C(C)CC (single isomer, unassigned) : what is it?
Output: 2.3

Input: May I ask what GI50 has been recorded for CCCCCCCCCCCCCCC[C@@H](O)[C@@H](N)C(C)C ?
Output: 20

====

- STUDY_TARGET: Casein kinase II subunit alpha (Homo sapiens)
- EXPERIMENT_NOTES: Inhibition of human Casein kinase 2 alpha 1 polypeptide assessed as residual activity at 10 uM relative to control
MEASURED_QUANTITY: Activity (%)

CCCCCCCCCCCCCCC[C@@H](O)[C@H](C)N	87
CCCCCCCCC[C@@H](O)[C@@H](N)Cc1ccccc1	70
CCCCCCCCCCCCCCC[C@@H](O)[C@@H](N)[C@@H](C)O	71
CCCCCCCCCCCCCCC[C@@H](O)[C@@H](N)CC(C)C	84

====

- STUDY_TARGET: Casein kinase I isoform epsilon (Homo sapiens, UniProt P49674)
- Sequence (P49674 whole entry, looked up, canonical isoform): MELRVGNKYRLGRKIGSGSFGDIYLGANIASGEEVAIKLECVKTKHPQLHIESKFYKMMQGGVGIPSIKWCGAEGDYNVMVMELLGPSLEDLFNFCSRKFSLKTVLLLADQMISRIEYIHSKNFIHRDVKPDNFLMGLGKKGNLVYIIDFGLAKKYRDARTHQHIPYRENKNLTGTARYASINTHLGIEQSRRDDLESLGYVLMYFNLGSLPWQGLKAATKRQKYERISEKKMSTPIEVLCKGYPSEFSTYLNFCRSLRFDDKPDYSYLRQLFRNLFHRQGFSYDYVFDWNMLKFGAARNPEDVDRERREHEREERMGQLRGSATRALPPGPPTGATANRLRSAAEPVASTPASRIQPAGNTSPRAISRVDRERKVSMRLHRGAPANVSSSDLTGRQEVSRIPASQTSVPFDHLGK
- EXPERIMENT_NOTES: Inhibition of human Casein kinase 1 epsilon assessed as residual activity at 10 uM relative to control
MEASURED_QUANTITY: Activity (%)

CCCCCCCCC[C@@H](O)[C@@H](N)Cc1ccccc1	27
CCCCCCCCCCCCCCC[C@@H](O)[C@@H](N)[C@@H](C)O	43
CCCCCCCCCCCCCCC[C@@H](O)[C@H](C)N	60
CCCCCCCCCCCCCCC[C@@H](O)[C@@H](N)CC(C)C	48

====

- Test system: WiDr
- EXPERIMENT_NOTES: Antiproliferative activity against human WiDr cells after 48 hrs incubation by SRB assay
- Type: functional
MEASURED_QUANTITY: GI50 (µM)
The reply should contain only the number, in µM.

// known answers, use as guide
CCCCCCCCCCCCCCC[C@@H](O)[C@@H](N)Cc1ccccc1	2.3
CCCCCCCCC[C@@H](O)[C@@H](N)Cc1ccc(O)cc1	12

Input: Any idea what GI50 was measured for CCCCCCCCCCCCCCC[C@@H](O)[C@@H](N)[C@@H](C)O ?
Output: 18

Input: For the compound CCCCCCCCCCCCCCC[C@@H](O)[C@H](C)N , what GI50 is on record?
Output: 0.7

Input: Could you share which GI50 value was measured for COc1cc([C@@H]2c3cc4c(cc3[C@@H](O[C@@H]3O[C@@H]5CO[C@@H](C)O[C@H]5[C@H](O)[C@H]3O)[C@H]3COC(=O)[C@H]23)OCO4)cc(OC)c1O [ETOPOSIDE] ?
Output: 26

====

- STUDY_TARGET: Casein kinase I isoform alpha-like (Homo sapiens) (UniProt Q8N752)
- Sequence (Q8N752 whole entry, canonical isoform): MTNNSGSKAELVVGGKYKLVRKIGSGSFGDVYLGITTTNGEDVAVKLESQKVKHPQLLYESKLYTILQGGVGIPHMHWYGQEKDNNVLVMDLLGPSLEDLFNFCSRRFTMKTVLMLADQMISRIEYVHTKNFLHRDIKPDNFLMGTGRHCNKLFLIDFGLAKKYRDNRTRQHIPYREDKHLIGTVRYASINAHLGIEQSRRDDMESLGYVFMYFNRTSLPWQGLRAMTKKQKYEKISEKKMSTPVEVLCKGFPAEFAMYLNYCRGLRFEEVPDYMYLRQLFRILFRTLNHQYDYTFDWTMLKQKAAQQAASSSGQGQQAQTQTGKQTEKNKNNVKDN
- EXPERIMENT_NOTES: Inhibition of human Casein kinase 1 alpha 1-like assessed as residual activity at 10 uM relative to control
MEASURED_QUANTITY: Activity (%)

CCCCCCCCC[C@@H](O)[C@@H](N)Cc1ccccc1	88
CCCCCCCCCCCCCCC[C@@H](O)[C@@H](N)CC(C)C	91
CCCCCCCCCCCCCCC[C@@H](O)[C@H](C)N	100
CCCCCCCCCCCCCCC[C@@H](O)[C@@H](N)[C@@H](C)O	100

====

- STUDY_TARGET: Casein kinase I isoform gamma-1 (Homo sapiens)
- EXPERIMENT_NOTES: Inhibition of human Casein kinase 1 gamma 1 assessed as residual activity at 10 uM relative to control
MEASURED_QUANTITY: Activity (%)

CCCCCCCCC[C@@H](O)[C@@H](N)Cc1ccccc1	100
CCCCCCCCCCCCCCC[C@@H](O)[C@@H](N)CC(C)C	98
CCCCCCCCCCCCCCC[C@@H](O)[C@@H](N)[C@@H](C)O	100
CCCCCCCCCCCCCCC[C@@H](O)[C@H](C)N	98

====

- STUDY_TARGET: Casein kinase I isoform alpha (Homo sapiens)
- EXPERIMENT_NOTES: Inhibition of human Casein kinase 1 alpha 1 assessed as residual activity at 10 uM relative to control
MEASURED_QUANTITY: Activity (%)

CCCCCCCCC[C@@H](O)[C@@H](N)Cc1ccccc1	95
CCCCCCCCCCCCCCC[C@@H](O)[C@@H](N)CC(C)C	93
CCCCCCCCCCCCCCC[C@@H](O)[C@H](C)N	100
CCCCCCCCCCCCCCC[C@@H](O)[C@@H](N)[C@@H](C)O	100

====

- Test system: SW1573
- EXPERIMENT_NOTES: Antiproliferative activity against human SW1573 cells after 48 hrs incubation by SRB assay
- Assay type: functional
- PARTICULARS: SW1573, 48 h
MEASURED_QUANTITY: GI50 (nM)

CCCCCCCCCCCCCCC[C@@H](O)[C@@H](N)CC(C)C	2800

(1) COc1cc([C@@H]2c3cc4c(cc3[C@@H](O[C@@H]3O[C@@H]5CO[C@@H](C)O[C@H]5[C@H](O)[C@H]3O)[C@H]3COC(=O)[C@H]23)OCO4)cc(OC)c1O [ETOPOSIDE]
(2) CCCCCCCCCCCCCCC[C@@H](O)[C@H](C)N
(3) CCCCCCCCCCCCCCC[C@@H](O)[C@@H](N)C(C)C
Input: Rank by GI50 (largest to smallest). Sort the labels as requested; that list is your answer.
Output: 3, 1, 2

====

- STUDY_TARGET: Casein kinase I isoform delta (Homo sapiens) (UniProt P48730)
- Sequence (P48730 whole entry, looked up, canonical isoform): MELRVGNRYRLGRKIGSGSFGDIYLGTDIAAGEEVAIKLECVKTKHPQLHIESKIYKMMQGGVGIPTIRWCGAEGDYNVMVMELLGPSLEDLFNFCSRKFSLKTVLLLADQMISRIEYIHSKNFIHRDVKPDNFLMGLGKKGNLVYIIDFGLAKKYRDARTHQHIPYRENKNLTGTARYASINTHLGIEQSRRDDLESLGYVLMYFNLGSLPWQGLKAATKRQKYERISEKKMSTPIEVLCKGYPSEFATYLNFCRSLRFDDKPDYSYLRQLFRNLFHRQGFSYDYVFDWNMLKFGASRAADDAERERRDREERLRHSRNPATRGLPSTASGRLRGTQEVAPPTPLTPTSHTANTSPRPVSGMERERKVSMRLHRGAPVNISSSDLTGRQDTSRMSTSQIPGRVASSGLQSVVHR
- EXPERIMENT_NOTES: Inhibition of human Casein kinase 1 delta assessed as residual activity at 10 uM relative to control
MEASURED_QUANTITY: Activity (%)

CCCCCCCCCCCCCCC[C@@H](O)[C@@H](N)CC(C)C	89
CCCCCCCCCCCCCCC[C@@H](O)[C@@H](N)[C@@H](C)O	90
CCCCCCCCCCCCCCC[C@@H](O)[C@H](C)N	100
CCCCCCCCC[C@@H](O)[C@@H](N)Cc1ccccc1	93

====

- Test system: WiDr
- EXPERIMENT_NOTES: Antiproliferative activity against human WiDr cells after 48 hrs incubation by SRB assay
- Type: functional
Listing of recorded GI50 by entry.
Give the quantity in µM, number only.

Worked set:
CCCCCCCCC[C@@H](O)[C@@H](N)CC(C)C	5.9
CCCCCCCCCCCCCCC[C@@H](O)[C@@H](N)CO [DIHYDROSPINGOSINE]	19
CCCCCCCCC[C@@H](O)[C@@H](N)Cc1ccccc1	12

Here is the next item to consider.
Input: Look up GI50 for this compound: CCCCCCCCCCCCCCC[C@@H](O)[C@@H](N)C(C)CC (single isomer, unassigned)
Output: 13
